Assayed target: T1, purified recombinant MHC II protein, allele DRB1*0801 (human)
T1 construct: bought from Benaroya Research Institute; also called MHC-II DR molecule
Run description: MHC II competition binding assay
Measured quantity: IC50
Enter the number, and then the unit.

Recorded results for 2 binders are shown here.
binder="DYVEAGQIIGWSGSTGY (synthetic mutated peptide of the lysostaphin catalytic domain; also called K95E) [cluster 4 peptide with Lys95Glu]" measured_quantity=IC50 result="12.2 µM"
binder="DHVEAGQIIGWSGSTGY (synthetic mutated peptide of the lysostaphin catalytic domain; also called 93_95) [cluster 4 peptide with Tyr93His/Lys95Glu]" measured_quantity=IC50 result="30.9 µM"

# next binder below
stdin: Provide only the value of recorded IC50 for DYVKAGQIIGWSGSTGY [cluster 4 wild-type (C4WT) epitope peptide]
stdout: 62.5 µM
